- target.or.system: human CYP11B1 (Homo sapiens (Human), UniProt P15538)
- Sequence (P15538 25-503): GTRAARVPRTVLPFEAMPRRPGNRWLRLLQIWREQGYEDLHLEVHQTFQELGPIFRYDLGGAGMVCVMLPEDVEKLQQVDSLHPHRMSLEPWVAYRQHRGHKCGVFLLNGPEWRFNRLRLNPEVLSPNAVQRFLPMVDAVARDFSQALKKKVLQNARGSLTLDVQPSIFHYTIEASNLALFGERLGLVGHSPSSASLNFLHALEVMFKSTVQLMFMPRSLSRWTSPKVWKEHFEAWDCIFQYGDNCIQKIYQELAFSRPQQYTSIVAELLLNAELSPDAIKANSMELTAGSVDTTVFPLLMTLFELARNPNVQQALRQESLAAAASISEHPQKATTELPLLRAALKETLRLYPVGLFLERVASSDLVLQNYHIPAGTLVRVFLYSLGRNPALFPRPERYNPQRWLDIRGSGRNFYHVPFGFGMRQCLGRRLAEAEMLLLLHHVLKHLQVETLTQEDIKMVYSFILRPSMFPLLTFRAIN
- assay.protocol: G-402 cellular enzyme assay, human CYP11B1 (cortisol release, HTRF)
- condition.set: G-402 cells expressing human CYP11B1; 1 μM Deoxycortisol
pEC50: −log10 of the molar value.
If the reported pEC50 equals or exceeds 8, assign rule met. If not, assign rule not met.

// below: answered molecules
1. CN1C(=O)CCc2cc(-c3cncc(COc4cnc(Cl)nc4)c3)ccc21 : rule met
2. CN1C(=O)CCc2cc(-c3cncc(COc4ccc(Cl)cn4)c3)ccc21 : rule met
3. Cc1ccnc(OCc2cncc(-c3ccc4c(c3)CCC(=O)N4C)c2)c1 : rule met
4. CN1C(=O)CCc2cc(-c3cncc(COc4cc(C#N)ccn4)c3)ccc21 : rule met
5. CN1C(=O)CCc2cc(-c3cncc(COc4ccc(Cl)cn4)c3)c(F)cc21 : rule met

Task item: Determine whether this molecule has pEC50 no lower than 8: `Cc1cc(OCc2cncc(-c3ccc4c(c3)CCC(=O)N4C)c2)nc(C(F)(F)F)c1`
Reply: rule met

Task item: And `Cc1cccc(OCc2cncc(-c3cc4c(cc3F)N(C)C(=O)CC4)c2C)n1` ?
Reply: rule not met

Task item: And `Cc1ccnc(OCc2cncc(-c3cc4c(cc3F)N(C)C(=O)CC4)c2)c1` ?
Reply: rule met

Task item: And `Cc1cccc(OCc2cncc(-c3ccc4c(c3)CCC(=O)N4C)c2)n1` ?
Reply: rule met

Task item: And `Cc1c(COc2cccc(F)n2)cncc1-c1cc2c(cc1F)N(C)C(=O)CC2` ?
Reply: rule not met

Task item: And `CN1C(=O)CCc2cc(-c3cncc(CC(=O)Nc4cccc(Cl)n4)c3)ccc21` ?
Reply: rule not met

Task item: And `Cc1cccc(OCc2cncc(-c3cc4c(cc3F)N(C)C(=O)CC4)c2)n1` ?
Reply: rule not met

Task item: And `CN1C(=O)CCc2cc(-c3cncc(COc4ncccn4)c3)ccc21` ?
Reply: rule not met

Task item: And `CN1C(=O)CCc2cc(-c3cncc(COc4ncccc4F)c3)c(F)cc21` ?
Reply: rule not met

----------
- target.or.system: UniProtKB P19099
- assay.protocol: G-402 cellular enzyme assay, human CYP11B2 (aldosterone release, HTRF)
- condition.set: G-402 cells expressing human CYP11B2; 1 μM Deoxycorticosterone
- Excerpt: Herein we identified the use of the G-402 cell line as a host cell to ectopically express (transiently or stably) enzymes of the CYP11 family. […] Importantly the identified cell line G-402 expresses co-factors (adrenodoxin and adrenodoxin reductase) important for the activity of the CYP11 family and no relevant enzyme activity of the CYP11 family (in comparison to H295R cells) was detected in these cells. […]
With a cut-off of 1 nM, any EC50 strictly below it is called Met; any EC50 meeting it or above is called Not met.

// below: answered compounds
1. Cc1cccc(OCc2cncc(-c3cc4c(cc3F)N(C)C(=O)CC4)c2)n1 : Not met
2. CN1C(=O)CCc2cc(-c3cncc(COc4cccc(F)n4)c3)ccc21 : Met
3. CN1C(=O)CCc2cc(-c3cncc(CSc4ncccc4Cl)c3)ccc21 : Not met
4. Cc1c(COc2cccc(Cl)n2)cncc1-c1cc2c(cc1F)N(C)C(=O)CC2 : Not met

// switching to the query compound
Task item: Regarding `CN1C(=O)CCc2cc(-c3cncc(COc4cnc(Cl)nc4)c3)ccc21` , kindly confirm whether its EC50 is beneath 1 nM.
Reply: Met

----------
- target.or.system: human CYP11B2 (Homo sapiens (Human))
- Sequence (P19099 25-503): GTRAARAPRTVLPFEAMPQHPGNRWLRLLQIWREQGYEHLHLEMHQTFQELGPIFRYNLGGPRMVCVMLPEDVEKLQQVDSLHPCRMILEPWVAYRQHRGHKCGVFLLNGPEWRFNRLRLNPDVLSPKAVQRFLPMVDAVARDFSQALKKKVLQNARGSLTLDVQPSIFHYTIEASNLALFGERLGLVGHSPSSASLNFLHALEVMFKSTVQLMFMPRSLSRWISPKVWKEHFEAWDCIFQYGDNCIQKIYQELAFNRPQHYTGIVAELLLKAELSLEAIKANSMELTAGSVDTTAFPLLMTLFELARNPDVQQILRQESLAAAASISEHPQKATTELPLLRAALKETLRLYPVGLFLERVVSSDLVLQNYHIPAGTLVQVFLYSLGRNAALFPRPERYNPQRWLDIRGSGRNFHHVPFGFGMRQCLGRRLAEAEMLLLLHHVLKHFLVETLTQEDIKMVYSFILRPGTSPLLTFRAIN
- assay.protocol: G-402 cellular enzyme assay, human CYP11B2 (aldosterone release, HTRF)
- condition.set: G-402 cells expressing human CYP11B2; 1 μM Deoxycorticosterone
- Description: Herein we identified the use of the G-402 cell line as a host cell to ectopically express (transiently or stably) enzymes of the CYP11 family. […] Importantly the identified cell line G-402 expresses co-factors (adrenodoxin and adrenodoxin reductase) important for the activity of the CYP11 family and no relevant enzyme activity of the CYP11 family (in comparison to H295R cells) was detected in these cells. […]
readout.type: pEC50
In plain terms, pEC50 is the concentration in mol/L turned into minus its base-10 logarithm.

1) CN1C(=O)CCc2cc(-c3cncc(COc4ccc(F)cn4)c3)ccc21 : 9.70
2) CN1C(=O)CCc2cc(-c3cncc(COc4cc(C#N)ccn4)c3)ccc21 : 9.70

Task item: # pEC50 lookup, item `Cc1c(COc2cccc(F)n2)cncc1-c1cc2c(cc1F)N(C)C(=O)CC2`
Reply: 9.70

Task item: And `Cc1cccc(OCc2cncc(-c3cc4c(cc3F)N(C)C(=O)CC4)c2C)n1` ?
Reply: 9.15

Task item: And `Cc1cccc(SCc2cncc(-c3ccc4c(c3)CCC(=O)N4C)c2)n1` ?
Reply: 10.92

Task item: And `CN1C(=O)CCc2cc(-c3cncc(COc4ccc(Cl)cn4)c3)ccc21` ?
Reply: 10.00

Task item: And `Cc1cccc(NC(=O)Cc2cncc(-c3ccc4c(c3)CCC(=O)N4C)c2)n1` ?
Reply: 8.66

Task item: And `Cc1c(COc2ncccc2F)cncc1-c1cc2c(cc1F)N(C)C(=O)CC2` ?
Reply: 8.30

----------
Measured pEC50 values are reported for all entries that follow.
- target.or.system: human CYP11B1 (Homo sapiens (Human))
- assay.protocol: G-402 cellular enzyme assay, human CYP11B1 (cortisol release, HTRF)
- condition.set: G-402 cells expressing human CYP11B1; 1 μM Deoxycortisol
- Text: Herein we identified the use of the G-402 cell line as a host cell to ectopically express (transiently or stably) enzymes of the CYP11 family. […] Importantly the identified cell line G-402 expresses co-factors (adrenodoxin and adrenodoxin reductase) important for the activity of the CYP11 family and no relevant enzyme activity of the CYP11 family (in comparison to H295R cells) was detected in these cells. […]
In plain terms, pEC50 is the concentration in mol/L turned into minus its base-10 logarithm.

Some molecules with known pEC50 results, for comparison:
1. Cc1c(COc2cccc(Cl)n2)cncc1-c1cc2c(cc1F)N(C)C(=O)CC2 [Example 25] : 6.94
2. CN1C(=O)CCc2cc(-c3cncc(COc4ccnc(C(F)(F)F)n4)c3)ccc21 [Example 10] : 7.91
3. Cc1nccc(OCc2cncc(-c3ccc4c(c3)CCC(=O)N4C)c2)n1 [Example 9] : 8.38
4. Cc1c(COc2ncccc2F)cncc1-c1cc2c(cc1F)N(C)C(=O)CC2 [Example 26] : 6.06
5. CN1C(=O)CCc2cc(-c3cncc(COc4cccc(Cl)n4)c3)c(F)cc21 [Example 21] : 7.79

Task item: # pEC50 lookup, item CN1C(=O)CCc2cc(-c3cncc(CSc4nc5ccccc5o4)c3)ccc21 [Example 13]
Reply: 9.05

Task item: And Cc1cccc(SCc2cncc(-c3ccc4c(c3)CCC(=O)N4C)c2)n1 [Example 14] ?
Reply: 10.00

Task item: And CN1C(=O)CCc2cc(-c3cncc(COc4ccc(F)cn4)c3)ccc21 [Example 2] ?
Reply: 8.20

Task item: And CN1C(=O)CCc2cc(-c3cncc(CSc4ncccc4Cl)c3)ccc21 [Example 16] ?
Reply: 7.34

Task item: And Cc1cccc(NC(=O)Cc2cncc(-c3ccc4c(c3)CCC(=O)N4C)c2)n1 [Example 28] ?
Reply: 7.84

Task item: And CN1C(=O)CCc2cc(-c3cncc(COc4ncccc4C(F)(F)F)c3)ccc21 [Example 8] ?
Reply: 7.14

Task item: And CN1C(=O)CCc2cc(-c3cncc(CC(=O)Nc4cccc(Cl)c4)c3)ccc21 [Example 29] ?
Reply: 6.51

----------
- target.or.system: human CYP11B2 (Homo sapiens (Human))
- assay.protocol: G-402 cellular enzyme assay, human CYP11B2 (aldosterone release, HTRF)
- condition.set: G-402 cells expressing human CYP11B2; 1 μM Deoxycorticosterone
Measured EC50 values are reported for all entries that follow.
State just the number; it will be interpreted in nM.

Task item: Form entry - test system: human CYP11B2 (Homo sapiens (Human)); read-out: EC50; compound: Cc1nccc(OCc2cncc(-c3ccc4c(c3)CCC(=O)N4C)c2)n1 [Example 9]
Reply: 0.1

Task item: And CN1C(=O)CCc2cc(-c3cncc(COc4ncccn4)c3)ccc21 [Example 12] ?
Reply: 3.6

Task item: And Cc1ccnc(OCc2cncc(-c3cc4c(cc3F)N(C)C(=O)CC4)c2)c1 [Example 23] ?
Reply: 0.1

Task item: And CN1C(=O)CCc2cc(-c3cncc(COc4ncccc4F)c3)c(F)cc21 [Example 19] ?
Reply: 14.1

Task item: And CN1C(=O)CCc2cc(-c3cncc(COc4ccnc(C(F)(F)F)n4)c3)ccc21 [Example 10] ?
Reply: 0.3

----------
- target.or.system: human CYP11B2 (Homo sapiens (Human))
- assay.protocol: G-402 cellular enzyme assay, human CYP11B2 (aldosterone release, HTRF)
- Type: cell-based
- condition.set: G-402 cells expressing human CYP11B2; 1 μM Deoxycorticosterone
Measured EC50 values are reported for all entries that follow.
State just the number; it will be interpreted in pM.

1) CN1C(=O)CCc2cc(-c3cncc(COc4ccccn4)c3)ccc21 : 200
2) CN1C(=O)CCc2cc(-c3cncc(COc4ncccc4C(F)(F)F)c3)ccc21 : 2300
3) Cc1cc(OCc2cncc(-c3ccc4c(c3)CCC(=O)N4C)c2)nc(C(F)(F)F)c1 : 400
4) CN1C(=O)CCc2cc(-c3cncc(COc4cccc(Cl)n4)c3)c(F)cc21 : 300

Task item: # EC50 lookup, item `CN1C(=O)CCc2cc(-c3cncc(COc4cccc(Cl)n4)c3)ccc21`
Reply: 200

Task item: And `CN1C(=O)CCc2cc(-c3cncc(CSc4nc5ccccc5o4)c3)ccc21` ?
Reply: 300

Task item: And `CN1C(=O)CCc2cc(-c3cncc(CC(=O)Nc4cccc(Cl)c4)c3)ccc21` ?
Reply: 12700

Task item: And `CN1C(=O)CCc2cc(-c3cncc(COc4ccc(Cl)cn4)c3)c(F)cc21` ?
Reply: 100

Task item: And `CN1C(=O)CCc2cc(-c3cncc(CSc4ncccc4C(F)(F)F)c3)ccc21` ?
Reply: 500
